Assayed Target: T1, Human ASGR-2 (human, UniProt P07307 1-311)
T1 construct: Expressed on HEK 293 cells; cDNA GenBank NM_080913.3; also called huASGR-2; hASGR-2
T1 sequence: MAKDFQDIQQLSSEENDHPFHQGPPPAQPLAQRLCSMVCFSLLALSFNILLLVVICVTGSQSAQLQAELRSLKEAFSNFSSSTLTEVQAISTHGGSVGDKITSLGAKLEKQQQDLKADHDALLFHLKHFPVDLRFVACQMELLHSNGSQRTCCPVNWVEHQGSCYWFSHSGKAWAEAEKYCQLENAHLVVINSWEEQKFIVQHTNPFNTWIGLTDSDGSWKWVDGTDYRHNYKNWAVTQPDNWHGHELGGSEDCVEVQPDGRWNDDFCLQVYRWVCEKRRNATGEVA
Experiment Summary: FACS on transfected HEK 293 cells; binding = signal at least 2x irrelevant IgG
Readout Kind: binding result

Binder	Measured Value
190F8 (antibody, V domains shown, Tested as hybridoma supernatant at normalized concentration) VH: QVQLVESGGGVVQPGRSLRLSCAASGFTFSTYGMHWVRQAPGKGLEWVAVIWYDGSNKNYADSVKGRFTISRDNSKNTLYLQMNSLRAEDTAVYYCARDQGVGYDGLDVWGQGTTVTVSS VL: DIQMTQSPSSLSASVGDRVTITCRTSQGIGNYLAWFQQKPGKAPKSLLYKASSLQSGVPSKFSGSGSGTDFTLTISSLQPEDFATYYCQQYMTYPLTFGGGTKVEIK	no binding
197G3 (antibody, V domains shown, Tested as hybridoma supernatant at normalized concentration) VH: QVQLVESGGGVVQPGRSLRLSCVASGFTFSSHGMHWVRQAPGKGLEWVAVIWYDGSNKNYADSVKGRFTISRDNSKNTLYLQMNSLRAEDTAVYYCARDPSVGYDGMDVWGQGTTVTVSS VL: DIQMTQSPSSLSASVGDRVTITCRASQGIGNHLAWFQQKPGKAPKSLIYAASSLQSGVPSKFSGSRSGTDFSLTISSLQPEDFATYYCQQYSNYPVTFGPGTKVDIK	no binding
